- METHOD_SUMMARY: Antiproliferative activity against mouse LLC cells incubated for 48 hrs by PI-staining based flow cytometry
- Assay type: functional, cell-based
- STUDY_CONDITIONS: Lewis lung carcinoma
MEASURED_ATTRIBUTE: pIC50
One number for each entry, as −log10 of the molar value.

[[record]]
compound = "C[C@]12CC[C@H]3[C@@H](CC=C4C[C@@H](O)CC[C@@]43C)[C@@H]1CC[C@@H]2[C@@H](O)CC(O)(C(F)(F)F)C(F)(F)F"
value = 5.70


Continue with the next compound.
Short answer for C[C@]12CC[C@H]3[C@@H](CC=C4C[C@@H](O)CC[C@@]43C)[C@@H]1CC[C@@H]2C(O)CC(O)(C(F)(F)F)C(F)(F)F (some centres not stated) : pIC50 was 5.70

----------
Please go through the items and note down their solubility kinetic at 4 h, 10 µM.
- METHOD_SUMMARY: Kinetic solubility in DMEM buffer/1% DMSO assessed as recovered drug level at 10 uM after 4 hrs by HPLC-MS/MS analysis
- Assay type: physicochemical
- STUDY_CONDITIONS: DMEM buffer with 1% DMSO; read-out: Drug recovery
Numbers only, in µM.

[[record]]
smiles_str = "C[C@]12CC[C@H]3[C@@H](CC=C4C[C@@H](O)CC[C@@]43C)[C@@H]1CC[C@@H]2[C@@H](O)CC(O)(C(F)(F)F)C(F)(F)F"
value = 10.7


Continue with the next molecule.
Short answer for C[C@]12CC[C@H]3[C@@H](CC=C4C[C@@H](O)CC[C@@]43C)[C@@H]1CC[C@@H]2[C@H](O)CC(O)(C(F)(F)F)C(F)(F)F : solubility kinetic at 4 h, 10 µM was 2.1

----------
Please go through the items and note down their pIC50.
- System: NCI-H520
- METHOD_SUMMARY: Antiproliferative activity against human NCI-H520 cells incubated for 72 hrs by PI-staining based flow cytometry
- Format: functional, cell-based
- STUDY_CONDITIONS: NCI-H520, 72 h
Numbers only, as −log10 of the molar value.

[[record]]
molecule = "C[C@]12CC[C@H]3[C@@H](CC=C4C[C@@H](O)CC[C@@]43C)[C@@H]1CC[C@@H]2C(O)CC(O)(C(F)(F)F)C(F)(F)F (some centres not stated)"
value = 5.39


Continue with the next molecule.
Hey, NCI-H520 data for C[C@]12CC[C@H]3[C@@H](CC=C4C[C@@H](O)CC[C@@]43C)[C@@H]1CC[C@@H]2[C@@H](O)CC(O)(C(F)(F)F)C(F)(F)F : pIC50 came out at 5.39

----------
- METHOD_SUMMARY: Dissociation constant, pKa of the compound in methanol-water mixture at 25 +/- 1 degC by potentiometric pH-metric method
- Type: physicochemical
Please go through the items and note down their pKa.
One number for each entry.

[[record]]
smiles_str = "C[C@]12CC[C@H]3[C@@H](CC=C4C[C@@H](O)CC[C@@]43C)[C@@H]1CC[C@@H]2[C@@H](O)CC(O)(C(F)(F)F)C(F)(F)F"
value = 9.04


Continue with the next compound.
Short answer for C[C@]12CC[C@H]3[C@@H](CC=C4C[C@@H](O)CC[C@@]43C)[C@@H]1CC[C@@H]2[C@H](O)CC(O)(C(F)(F)F)C(F)(F)F : pKa was 9.08
